These data points were gathered from paper PMC11452728.

- Procedure summary: Pharmacokinetic study of indacaterol in rat lung tissues (MISPE, UPLC)
- Assay type: in vivo, male Wistar rats
- Measurement parameters: male, Wistar, lung, inhaled or intranasal, 150 ug; rat lungs; zero to 24 h; single inhaled capsule 150 µg; mean ± SD
- Method: AUC was calculated using the trapezoidal rule where, AUC 0−t was determined by summing the areas of consecutive trapezoids formed by plotting drug concentration versus time[36]. […] The AUC 0−inf was calculated using Eq. (9)[36]:9 [drawing 9] where, Ct is the last lung concentration measured. The t1/2 was calculated using Eq. (10)[36]:10 [drawing 10] […]
Readout name: AUC(0-t) (µg·h/mL)
Lab book: enter the figure in µg·h/mL, no units written.

Return the recorded AUC(0-t) value; entry: CCc1cc2c(cc1CC)CC(NC[C@H](O)c1ccc(O)c3[nH]c(=O)ccc13)C2
176
